# System: KGN (Other Solid Carcinomas)
# assay.text: Bliss excess, mean over the matrix (fraction); higher = more synergy;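 also: after 72 h of two-drug dosing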
Please go through the items and note down their Bliss excess.
Answers are plain numbers.

{"compound": "CN(CCO)CC[C@H](CSc1ccccc1)Nc1ccc(S(=O)(=O)NC(=O)c2ccc(N3CCC([C@@H](O)c4ccccc4-c4ccc(Cl)cc4)CC3)cc2)cc1S(=O)(=O)C(F)(F)F [AZD4320] + C[C@@H]1COCCN1C2=NC(=NC(=C2)C3(CC3)[S@](=N)(=O)C)C4=C5C=CNC5=NC=C4 [AZD6738] (first compound max 1 µM, 7x7, partner max 10 µM)", "Bliss excess": -0.0198}
{"compound": "NC1(C(=O)N[C@@H](CCO)c2ccc(Cl)cc2)CCN(c2ncnc3[nH]ccc23)CC1 [Capivasertib] + CCN(CCO)CCCOc1ccc2c(Nc3cc(CC(=O)Nc4cccc(F)c4)[nH]n3)ncnc2c1 [AZD2811] (first compound max 10 µM, 7x7, partner max 1 µM)", "Bliss excess": -0.0623}
{"compound": "Cn1cnc2c(F)c(Nc3ccc(Br)cc3Cl)c(C(=O)NOCCO)cc21 [Selumetinib] + C[C@@H]1COCCN1C2=NC(=NC(=C2)C3(CC3)[S@](=N)(=O)C)C4=C5C=CNC5=NC=C4 [AZD6738] (first compound max 10 µM, 7x7, partner max 10 µM)", "Bliss excess": -0.0817}
{"compound": "CN(CCO)CC[C@H](CSc1ccccc1)Nc1ccc(S(=O)(=O)NC(=O)c2ccc(N3CCC([C@@H](O)c4ccccc4-c4ccc(Cl)cc4)CC3)cc2)cc1S(=O)(=O)C(F)(F)F [AZD4320] + Cc1cc2ncnn2cc1Nc1ncc2c(n1)n(C1CCOCC1)c(=O)n2C [AZD7648] (first compound max 1 µM, 7x7, partner max 10 µM)", "Bliss excess": -0.103}

# input for lookup
Per the reported KGN (Other Solid Carcinomas) data, N#Cc1cnc(Nc2cc(NC[C@H]3CNCCO3)c(C(F)(F)F)cn2)cn1 [SRA737] + CCc1c2c(nc3ccc(O)cc13)-c1cc3c(c(=O)n1C2)COC(=O)[C@]3(O)CC [SN-38] (first compound max 10 µM, 7x7, partner max 0.3 µM) has Bliss excess of -0.0554

* * *

Please go through the items and note down their Bliss excess.
# Tested on: Ca-Ski (Cervical Carcinoma)
# assay.text: Bliss excess, mean over the matrix (fraction); higher = more synergy

Below, 8 molecules whose answers are already recorded.
{"molecule": "CC1(C)CCC(CN2CCN(c3ccc(C(=O)NS(=O)(=O)c4ccc(NCC5CCOCC5)c([N+](=O)[O-])c4)c(Oc4cnc5[nH]ccc5c4)c3)CC2)=C(c2ccc(Cl)cc2)C1 [Venetoclax] + Cc1cc2ncnn2cc1Nc1ncc2c(n1)n(C1CCOCC1)c(=O)n2C [AZD7648] (first compound max 1 µM, 7x7, partner max 10 µM)", "assay.system": "Ca-Ski (Cervical Carcinoma)", "Bliss excess": -0.0061}
{"molecule": "CN(CCO)CC[C@H](CSc1ccccc1)Nc1ccc(S(=O)(=O)NC(=O)c2ccc(N3CCC([C@@H](O)c4ccccc4-c4ccc(Cl)cc4)CC3)cc2)cc1S(=O)(=O)C(F)(F)F [AZD4320] + CC(=O)O[C@H]1C(=O)[C@@]2(C)[C@H]([C@H](OC(=O)c3ccccc3)[C@]3(O)C[C@H](OC(=O)[C@H](O)[C@@H](NC(=O)c4ccccc4)c4ccccc4)C(C)=C1C3(C)C)[C@]1(OC(C)=O)CO[C@@H]1C[C@@H]2O [Paclitaxel] (first compound max 1 µM, 7x7, partner max 3 µM)", "assay.system": "Ca-Ski (Cervical Carcinoma)", "Bliss excess": 0.114}
{"molecule": "CC1(C)CCC(CN2CCN(c3ccc(C(=O)NS(=O)(=O)c4ccc(NCC5CCOCC5)c([N+](=O)[O-])c4)c(Oc4cnc5[nH]ccc5c4)c3)CC2)=C(c2ccc(Cl)cc2)C1 [Venetoclax] + C[C@@H](Nc1cc(F)cc(F)c1)c1cc(C(=O)N(C)C)cc2c(=O)cc(N3CCOCC3)oc12 [AZD8186] (first compound max 1 µM, 7x7, partner max 3 µM)", "assay.system": "Ca-Ski (Cervical Carcinoma)", "Bliss excess": -0.0259}
{"molecule": "Cn1cnc2c(F)c(Nc3ccc(Br)cc3Cl)c(C(=O)NOCCO)cc21 [Selumetinib] + C[C@@H]1COCCN1C2=NC(=NC(=C2)C3(CC3)[S@](=N)(=O)C)C4=C5C=CNC5=NC=C4 [AZD6738] (first compound max 10 µM, 7x7, partner max 10 µM)", "assay.system": "Ca-Ski (Cervical Carcinoma)", "Bliss excess": 0.0396}
{"molecule": "CN(C)CCCOc1ccc(-c2ccc3ncc4c(c3c2)n(C2CCOCC2)c(=O)n4C)cn1 [AZD0156] + CCN(CCO)CCCOc1ccc2c(Nc3cc(CC(=O)Nc4cccc(F)c4)[nH]n3)ncnc2c1 [AZD2811] (first compound max 1 µM, 7x7, partner max 1 µM)", "assay.system": "Ca-Ski (Cervical Carcinoma)", "Bliss excess": 0.008}
{"molecule": "CCN(CCO)CCCOc1ccc2c(Nc3cc(CC(=O)Nc4cccc(F)c4)[nH]n3)ncnc2c1 [AZD2811] + C=CCn1c(=O)c2cnc(Nc3ccc(N4CCN(C)CC4)cc3)nc2n1-c1cccc(C(C)(C)O)n1 [AZD1775] (first compound max 1 µM, partner max 1 µM)", "assay.system": "Ca-Ski (Cervical Carcinoma)", "Bliss excess": 0.0123}
{"molecule": "CN(CCO)CC[C@H](CSc1ccccc1)Nc1ccc(S(=O)(=O)NC(=O)c2ccc(N3CCC([C@@H](O)c4ccccc4-c4ccc(Cl)cc4)CC3)cc2)cc1S(=O)(=O)C(F)(F)F [AZD4320] + C[C@@H](Nc1cc(F)cc(F)c1)c1cc(C(=O)N(C)C)cc2c(=O)cc(N3CCOCC3)oc12 [AZD8186] (first compound max 1 µM, 7x7, partner max 3 µM)", "assay.system": "Ca-Ski (Cervical Carcinoma)", "Bliss excess": 0.0605}
{"molecule": "NC1(C(=O)N[C@@H](CCO)c2ccc(Cl)cc2)CCN(c2ncnc3[nH]ccc23)CC1 [Capivasertib] + Cn1cnc2c(F)c(Nc3ccc(Br)cc3Cl)c(C(=O)NOCCO)cc21 [Selumetinib] (first compound max 10 µM, 7x7, partner max 10 µM)", "assay.system": "Ca-Ski (Cervical Carcinoma)", "Bliss excess": 0.0246}

Give measured Bliss excess for every item shown.
1. Cc1c2c(nn1C)CSCc1cc(n(C)n1)CSc1cc(c3ccccc3c1)OCCCc1c(C(=O)O)n(C)c3c-2c(Cl)ccc13 [AZD5991] + CC1(C)CCC(CN2CCN(c3ccc(C(=O)NS(=O)(=O)c4ccc(NCC5CCOCC5)c([N+](=O)[O-])c4)c(Oc4cnc5[nH]ccc5c4)c3)CC2)=C(c2ccc(Cl)cc2)C1 [Venetoclax] (first compound max 1 µM, 7x7, partner max 1 µM)
2. C[C@@H](Oc1cc(-c2cnn(C3CCNCC3)c2)cnc1N)c1c(Cl)ccc(F)c1Cl [Crizotinib] + Cn1cnc2c(F)c(Nc3ccc(Br)cc3Cl)c(C(=O)NOCCO)cc21 [Selumetinib] (first compound max 10 µM, 7x7, partner max 10 µM)
3. Cc1cc2ncnn2cc1Nc1ncc2c(n1)n(C1CCOCC1)c(=O)n2C [AZD7648] + C[C@@H]1COCCN1C2=NC(=NC(=C2)C3(CC3)[S@](=N)(=O)C)C4=C5C=CNC5=NC=C4 [AZD6738] (first compound max 10 µM, 7x7, partner max 10 µM)

1. 0.0006
2. 0.0464
3. 0.0404

Give measured Bliss excess for every item shown.
1. COc1cc2c(cc1OCCCCCOc1cc3c(cc1OC)C(=O)N1C=C(C)C[C@H]1C=N3)N=C[C@@H]1CC(C)=CN1C2=O [SG3199] + O=C(c1cc(Cc2n[nH]c(=O)c3ccccc23)ccc1F)N1CCN(C(=O)C2CC2)CC1 [Olaparib] (first compound max 0.001 µM, 7x7, partner max 10 µM)
2. CN(C)CCCOc1ccc(-c2ccc3ncc4c(c3c2)n(C2CCOCC2)c(=O)n4C)cn1 [AZD0156] + O=C(c1cc(Cc2n[nH]c(=O)c3ccccc23)ccc1F)N1CCN(C(=O)C2CC2)CC1 [Olaparib] (first compound max 3 µM, partner max 3 µM)

-0.0425
0.063
